# Target Or Test System: 5-hydroxytryptamine receptor 2A (Homo sapiens) (UniProt P28223)
# Sequence (P28223 whole entry, looked up): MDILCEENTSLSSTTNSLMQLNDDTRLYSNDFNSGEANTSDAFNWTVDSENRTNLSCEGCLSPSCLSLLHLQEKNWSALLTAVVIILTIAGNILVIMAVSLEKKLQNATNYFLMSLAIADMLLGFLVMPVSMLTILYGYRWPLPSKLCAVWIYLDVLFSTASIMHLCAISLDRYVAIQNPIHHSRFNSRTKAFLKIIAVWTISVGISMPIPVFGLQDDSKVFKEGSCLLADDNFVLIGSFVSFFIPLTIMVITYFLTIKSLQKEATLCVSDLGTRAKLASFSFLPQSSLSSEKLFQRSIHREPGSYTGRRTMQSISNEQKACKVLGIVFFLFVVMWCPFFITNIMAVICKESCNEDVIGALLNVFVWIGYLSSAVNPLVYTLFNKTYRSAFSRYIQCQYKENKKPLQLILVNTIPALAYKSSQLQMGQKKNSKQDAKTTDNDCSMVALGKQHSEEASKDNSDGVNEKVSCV
# Assay Procedure: 5-hydroxytryptamine receptor 2A (HTR2A) small molecule antagonists, cell-based qHTS assay (AID 1963586); further: nearly all actives have a fitted effect of over 45% in size
# Experimental Conditions: HTR2A-CHO cells, DOI-induced calcium flux, fluorescence; series mostly up to 61.5 µM
Results filed as inconclusive are left out. The source made the active and inactive calls. The call rests on the fitted dose curve.
Field 'call' accepts yes (1) (active), no (0) (inactive)

Lookup: GET /call?item= O=C1c2cccc3c2[C@H](CCC3)CN1[C@@H]1CN2CCC1CC2 returns the recorded outcome of this test.
Found: no (0)

Lookup: Try this molecule too: CCC(C)[O-].CCC(C)[O-].CCOC(=O)/C=C(/C)[O-].[Al+3]
Found: no (0)

Lookup: Moving on to CO/N=C1\CN(c2nc3c(cc2F)c(=O)c(C(=O)O)cn3C2CC2)CC1CN (stereo not drawn)
Found: no (0)

Lookup: Param item: CCN(CC)c1ccc2c(c1)Oc1cc(N(CC)CC)ccc1C21OC(=O)c2ccccc21
Found: no (0)

Lookup: Same thing, different molecule: CC(C)(C)c1ccc(OC(=O)c2ccccc2O)cc1
Found: no (0)

Lookup: What do we get for Cc1ccccn1 ?
Found: no (0)

Lookup: Entry CCC(C)C(C)=O (stereo not drawn) please
Found: no (0)

Lookup: What do we get for CC1CN(c2ccccc2)NC1=O (stereo not drawn) ?
Found: no (0)

Lookup: Can you check OC(CN1CCC(Cc2ccc(F)cc2)CC1)c1ccc(Cl)cc1 (stereo not drawn) next?
Found: yes (1)

Lookup: Same read-out for S=C(S)NCCNC(=S)S ?
Found: no (0)

Lookup: Repeat with SCCOCCOCCS
Found: no (0)

Lookup: # iterate: O=C(Cl)c1cc(C(=O)Cl)cc(C(=O)Cl)c1
Found: no (0)

Lookup: Okay, and NCCNC(=O)c1ccc(Cl)cn1 ?
Found: no (0)

----------
# Target Or Test System: Beta-2 adrenergic receptor (Homo sapiens) (UniProt P07550)
# Sequence (P07550 whole entry, looked up): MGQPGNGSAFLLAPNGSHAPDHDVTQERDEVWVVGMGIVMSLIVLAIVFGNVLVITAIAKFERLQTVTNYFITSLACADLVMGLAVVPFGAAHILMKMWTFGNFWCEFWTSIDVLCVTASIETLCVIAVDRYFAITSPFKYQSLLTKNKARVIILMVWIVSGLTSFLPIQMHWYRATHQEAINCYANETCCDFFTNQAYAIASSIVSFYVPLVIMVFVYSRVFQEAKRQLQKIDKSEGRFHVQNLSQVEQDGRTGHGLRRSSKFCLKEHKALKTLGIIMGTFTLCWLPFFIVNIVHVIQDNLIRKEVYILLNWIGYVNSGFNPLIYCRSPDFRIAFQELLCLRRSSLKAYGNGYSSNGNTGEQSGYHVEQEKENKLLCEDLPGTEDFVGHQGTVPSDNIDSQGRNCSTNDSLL
# Assay Procedure: Adrenergic beta2 receptor (ADRB2) small molecule agonists, cell-based qHTS assay (AID 1963593);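 further: CHO cells stably overexpressing human ADRB2; on the % scale 0 is the no-effect control and ±100 the full control effect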
# Experimental Conditions: CHO-ADRB2 cells, cAMP HTRF, 30 min; series mostly up to 92.4 µM
Inconclusive results are not listed. The source made the active and inactive calls. Calls follow the shape of the full dose curve.
Assay Readout: activation

Reference set (6 entries):
> print(dat)
                                   compound  assay.readout   reading
1                          S=C(S)NCCNC(=S)S     activation  inactive
2  CC(C)C(O)(c1ccc(OC(F)(F)F)cc1)c1cncnc1 (stereo not drawn)     activation  inactive
3  COc1cc2c(cc1OC)[C@@H]1CC(=O)[C@@H](CC(C)C)CN1CC2     activation  inactive
4                 COc1ccc(NC(=O)CC(C)=O)cc1     activation  inactive
5                                   OCCCCCO     activation  inactive
6           NNC(=O)CP(=O)(c1ccccc1)c1ccccc1     activation  inactive

Lookup: Observed activation on Beta-2 adrenergic receptor (Homo sapiens) (UniProt P07550) for CC(=O)OCC1=C(C(=O)O)N2C(=O)[C@@H](NC(=O)CSc3ccncc3)[C@H]2SC1 , please.
Found: inactive

Lookup: Could you do the same for O=C1c2ccccc2C(=O)c2c1ccc(O)c2O , please?
Found: inactive

Lookup: Please give the result for COC(C)(C)CC(C)=O too.
Found: inactive

Lookup: COc1ccc(-c2cc(=S)ss2)cc1 , same question.
Found: inactive

Lookup: What do we get for N#CCCNCCC#N ?
Found: inactive

Lookup: # iterate: CC1=CC(=C(c2ccc(N)cc2)c2ccc(N)cc2)C=CC1=N
Found: -33.8% [at 8.39 µM] (inactive)

Lookup: Okay, and CCCCCC1Nc2cc(C(F)(F)F)c(S(N)(=O)=O)cc2S(=O)(=O)N1 (stereo not drawn) ?
Found: inactive

----------
# Target Or Test System: D(2) dopamine receptor (Homo sapiens) (UniProt P14416)
# Sequence (P14416 whole entry, looked up): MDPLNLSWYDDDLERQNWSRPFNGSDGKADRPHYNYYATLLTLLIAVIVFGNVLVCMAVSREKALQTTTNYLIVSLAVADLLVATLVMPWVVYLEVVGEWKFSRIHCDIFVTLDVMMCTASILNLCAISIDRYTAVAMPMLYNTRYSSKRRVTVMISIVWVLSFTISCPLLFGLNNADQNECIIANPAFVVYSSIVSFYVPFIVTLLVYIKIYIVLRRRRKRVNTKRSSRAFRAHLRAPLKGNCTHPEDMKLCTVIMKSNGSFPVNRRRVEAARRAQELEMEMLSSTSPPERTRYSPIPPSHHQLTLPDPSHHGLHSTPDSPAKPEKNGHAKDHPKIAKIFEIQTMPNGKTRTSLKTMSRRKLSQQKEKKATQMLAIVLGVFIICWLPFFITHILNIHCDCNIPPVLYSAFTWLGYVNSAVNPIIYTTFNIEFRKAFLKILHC
# Assay Procedure: Dopamine D2 receptor (DRD2) small molecule antagonists, cell-based qHTS assay (AID 1963595)
# Experimental Conditions: HEK293-DRD2 cAMP HTRF antagonist mode; series mostly up to 92.4 µM
Records with an inconclusive call do not appear. Active and inactive are the calls of the source. Calls come from the whole dose curve; as a rule, active = well fitted inhibition curve with a large enough effect in the signal ratio in the repeat runs, with a control signal flat; inconclusive = weak or mixed curves, or effect the other way; inactive = flat fitted curve, though single readings scatter; the % refers to the signal ratio.
Log the outcome using a class from active, inactive

Lookup: Please state the recorded outcome for this molecule: CC(C)CCCC(C)CC=O (centres undefined)
Found: inactive

Lookup: What would you report for CCc1ncc(C)[nH]1 ?
Found: inactive

Lookup: Next: O=P(c1ccccc1)(c1ccccc1)c1ccccc1
Found: inactive

Lookup: How about this molecule: CCCCCCCCCCCCOCCOCCOCCOCCOCCOCCOCCOCCOCCO
Found: inactive

Lookup: Another: CCCCNc1cc(C(=O)O)cc(S(N)(=O)=O)c1Oc1ccccc1
Found: inactive

Lookup: Again, but for Oc1ccc(N=Nc2ccccc2)cc1
Found: inactive

Lookup: Same for Cc1ccc(O)c(N)c1
Found: inactive

Lookup: What about COc1cccc(CCc2ccccc2OCC(CN(C)C)OC(=O)CCC(=O)O)c1 (centres undefined) ?
Found: inactive

Lookup: Now consider CC1(C)CCC(C)(C)c2cc(C(=O)Nc3ccc(C(=O)O)cc3)ccc21 and answer again.
Found: inactive

Lookup: Also COC(=O)C1=C(C)NC(C)=C(C(=O)OCCc2ccc(N3CCN(C(c4ccccc4)c4ccccc4)CC3)cc2)C1c1cccc([N+](=O)[O-])c1 (centres undefined) ?
Found: inactive

Lookup: Proceed to CN(C)c1ccc(C=O)cc1
Found: inactive

Lookup: Follow-up entry: CC/C(C)=N\O[Si](C)(O/N=C(\C)CC)O/N=C(\C)CC
Found: inactive

Lookup: And the next one, N#CSCSc1nc2ccccc2s1 ?
Found: active

Lookup: Also, c1coc(Cn2cccc2)c1 please.
Found: inactive

Lookup: One more molecule: CC(C)(C)c1ccc(C(O)CCCN2CCC(C(O)(c3ccccc3)c3ccccc3)CC2)cc1 (centres undefined)
Found: inactive

Lookup: // query: CC(C)(C(=O)O)c1ccc(C(O)CCCN2CCC(C(O)(c3ccccc3)c3ccccc3)CC2)cc1 (centres undefined)
Found: inactive

Lookup: And CCCC/C=C/C=C\C=O ?
Found: inactive

Lookup: Thanks! And CCCCc1cc2ccccc2c(OCCN(C)C)n1 ?
Found: inactive

Lookup: Now consider C=C[Si](OCC)(OCC)OCC and answer again.
Found: inactive

Lookup: Param item: CS(=O)(=O)Nc1ccc([N+](=O)[O-])cc1Oc1ccccc1
Found: inactive

Lookup: Also CC1(C)SC(C)(C)SC(C)(C)S1 , if possible.
Found: inactive

Lookup: What do we get for CC(C)(C)c1csc(-c2cc3cc(OCc4ccccc4CC(=O)O)ccc3o2)n1 ?
Found: inactive

Lookup: What do you get for O=C(CC(=O)C(F)(F)F)c1ccccc1 ?
Found: inactive

Lookup: // next record Cc1cc(O)c(Cl)c(C)c1Cl
Found: inactive

Lookup: CCCCNCCCC , same question.
Found: inactive

Lookup: Now this one: C[C@H]1O[C@@H](O[C@H]2CC[C@@]3(C)[C@H](CC[C@@H]4[C@@H]3C[C@@H](O)[C@]3(C)[C@@H](C5=CC(=O)OC5)CC[C@]43O)C2)C[C@H](O)[C@@H]1O[C@H]1C[C@H](O)[C@H](O[C@H]2C[C@H](O)[C@H](O[C@@H]3O[C@H](CO)[C@@H](O)[C@H](O)[C@H]3O)[C@@H](C)O2)[C@@H](C)O1
Found: inactive

Lookup: Cool, now CC[C@]12CCCN3CCc4c(n(c5ccccc45)C(=O)C1)[C@@H]32
Found: inactive

Lookup: Next molecule up: Clc1ccc(Cn2c(CN3CCCC3)nc3ccccc32)cc1
Found: inactive

Lookup: And for OC[C@H]1O[C@@H](n2cnc3c(=S)nc[nH]c32)[C@H](O)[C@@H]1O ?
Found: inactive

Lookup: Now this one: O=C(O)Cc1ccc(OCCNC[C@H](O)c2ccccc2)cc1
Found: inactive

Lookup: Next record, please: Cc1ccc2nc(-c3ccc(N)cc3)sc2c1S(=O)(=O)O
Found: inactive

Lookup: Now consider C=CCc1cc(S(=O)(=O)c2ccc(O)c(CC=C)c2)ccc1O .
Found: inactive

Lookup: Request: Cc1c(Nc2ncccc2C(=O)O)cccc1C(F)(F)F
Found: inactive

Lookup: Next entry: CCCCCC1Nc2cc(C(F)(F)F)c(S(N)(=O)=O)cc2S(=O)(=O)N1 (centres undefined)
Found: inactive

Lookup: Further, for CC(=O)c1ccc(C)cc1 ?
Found: inactive

Lookup: Next up: CN(C)CCCN1c2ccccc2CCc2ccccc21
Found: inactive

Lookup: Try this molecule next: CCCCC(CC)COC(=O)CCCCC(=O)OCc1ccccc1 (centres undefined)
Found: inactive

Lookup: Same thing, different molecule: O=C1CCCCC1C1CCCCC1 (centres undefined)
Found: inactive

Lookup: Same thing, different molecule: CCCC(C)CC (centres undefined)
Found: inactive

Lookup: Now the same for CCc1cc(C(C)(C)C)c(O)c(C(C)(C)C)c1
Found: inactive

Lookup: Thanks! And CCSCC ?
Found: inactive

Lookup: Same lookup for CC(=O)Nc1ccc(OC(=O)c2ccccc2OC(C)=O)cc1 , please.
Found: inactive

Lookup: # iterate: CCC(=O)c1ccc2c(c1)N(CCCN(C)C)c1ccccc1S2
Found: active

Lookup: Continue with CCC(=O)OCCC(C)CCC=C(C)C (centres undefined)
Found: inactive

Lookup: What do you get for CCOc1ccc(N=Nc2ccc(/C=C/c3ccc(N=Nc4ccc(OCC)cc4)cc3S(=O)(=O)O)c(S(=O)(=O)O)c2)cc1 ?
Found: inactive

Lookup: Queued: CN1CCC(=C2c3ccccc3CCc3cccnc32)CC1
Found: active

Lookup: Moving on to the next molecule: CN1CCC[C@@H]1c1cccnc1
Found: inactive

Lookup: Entry to check: Cc1nc(N)nc(N)c1-c1ccc(Cl)c(Cl)c1
Found: inactive

Lookup: And CCCCOc1ccc(N)cc1 ?
Found: inactive

Where these numbers come from: PubChem BioAssay (Tox21)
